Origin of the recorded values: paper PMC6760779

# MEASURED ON: SLC22A24 (Homo sapiens, UniProt Q8N4F4)
# Sequence (Q8N4F4 1-552): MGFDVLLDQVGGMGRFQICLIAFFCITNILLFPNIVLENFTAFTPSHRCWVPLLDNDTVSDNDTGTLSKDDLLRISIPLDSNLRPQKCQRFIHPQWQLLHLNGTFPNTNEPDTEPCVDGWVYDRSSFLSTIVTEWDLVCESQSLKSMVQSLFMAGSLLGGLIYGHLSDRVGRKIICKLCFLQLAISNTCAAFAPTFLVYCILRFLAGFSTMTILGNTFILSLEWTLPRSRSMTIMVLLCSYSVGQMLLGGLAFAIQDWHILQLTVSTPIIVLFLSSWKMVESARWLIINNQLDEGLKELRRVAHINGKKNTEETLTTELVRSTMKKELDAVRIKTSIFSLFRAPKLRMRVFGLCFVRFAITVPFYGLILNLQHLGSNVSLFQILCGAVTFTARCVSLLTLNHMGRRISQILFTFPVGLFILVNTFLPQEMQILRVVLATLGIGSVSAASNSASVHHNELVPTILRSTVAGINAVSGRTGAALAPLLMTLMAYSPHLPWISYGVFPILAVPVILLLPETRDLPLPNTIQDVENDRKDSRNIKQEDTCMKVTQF
# RUN DESCRIPTION: cell-based
# SETTINGS: read-out: IC50 [μM ± SD]
RESULT TYPE: IC50 (µM)

Examples with answers:
O=C(O)CSc1nnc(Br)n1-c1ccc(C2CC2)c2ccccc12	13
CN(CCOc1ccc(CC2SC(=O)NC2=O)cc1)c1ccccn1 (stereo not shown)	3.3

[A] C[C@H](CCC(=O)O)[C@H]1CC[C@H]2[C@@H]3[C@@H](O)C[C@@H]4C[C@H](O)CC[C@]4(C)[C@H]3CC[C@]12C
[B] C[C@H](CCC(=O)O)[C@H]1CC[C@H]2[C@@H]3[C@H](O)C[C@@H]4C[C@H](O)CC[C@]4(C)[C@H]3CC[C@]12C
Data request: Sort A and B by IC50 descending and give the first. API: response body contains the label of the selected item.
Data returned: A
(A: 7.6 µM, B: 2.6 µM)

====

# MEASURED ON: SLC22A24 (Homo sapiens)
# RUN DESCRIPTION: cell-based
Where a name gives a salt, the structure may show the parent alone.
Overview of reported pIC50 across a group of molecules:
Friendly reminder that pIC50 comes from taking -log10 of the concentration in mol/L.

CC(=O)[C@H]1CC[C@H]2[C@@H]3CC=C4C[C@@H](OS(=O)(=O)O)CC[C@]4(C)[C@H]3CC[C@]12C [Pregnenolone sulfate]	5.85

Could you now look at the following molecule, please?
Data request: Provide measured pIC50 value, entry: CC(=O)[C@H]1CC[C@H]2[C@@H]3CCC4=CC(=O)CC[C@]4(C)[C@H]3CC[C@]12C [Progesterone]
Data returned: 5.13
